Molecular target: human CLDN18.2 (human)
Test: cell-based or functional assay
For each of the binders below, state its CDC EC50, KATO-III target cells, human serum.
Answers are plain numbers, in µg/mL.

Consider the worked cases shown below.
INSERT INTO assay_data (binder, reported_measurement) VALUES
  ('7004-09hu15 (antibody, human IgG1, kappa, V domains shown, humanized antibody of murine 44F7, human IgG1/kappa constant regions) VH: QVQLVQSGAEVKKPGASVKVSCKASGYTFTSYYMHWVRQAPGQGLEWMGTIYPGNGDTSYNQKFQGRVTMTRDKSTSTVYMELSSLRSEDTAVYFCARGGYYGNSLDYWGQGTLVTVSA VL: DIVMTQSPDSLAVSLGERATINCKSSQSVLNSGNQKNYLAWYQQKPGQPPKLLIYWASTRESGVPDRFSGSGSGTDFTLTISSLQAEDVAVYYCQNAYYYPFTFGQGTKLEIKR', 0.27),
  ('175D10 (antibody, human IgG1, kappa, V domains shown) VH: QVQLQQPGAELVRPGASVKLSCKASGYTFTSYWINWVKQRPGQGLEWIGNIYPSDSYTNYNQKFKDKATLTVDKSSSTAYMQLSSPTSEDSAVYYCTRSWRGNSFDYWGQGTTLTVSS VL: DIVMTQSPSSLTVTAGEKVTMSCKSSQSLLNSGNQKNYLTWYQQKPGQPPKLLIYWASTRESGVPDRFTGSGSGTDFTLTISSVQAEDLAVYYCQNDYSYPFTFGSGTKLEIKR', 34.8),
  ('44F7-chIgG1 (antibody, V domains shown, human-mouse chimeric antibody, human IgG1/kappa constant regions; also called parental chimeric antibody) VH: QVQLQQSGAELVRPGASVKMSCKASGYTFTSYNMHWVKQAPRQGLEWIGTIYPGNGDTSYNQKFKGKATLTVDKSSSTAYMQLSSLTSEDSAVYFCARGGYYGNSLDYWGQGTTLTVSS VL: DIQMTQSPSSLTVTAGEKVTMSCKSSQSLLNSGNQKNYLTWYQQKPGQPPKLLIYWASTRESGVPDRFTGSGSGTDFTLTISSVQAEDLAVYYCQNAYYYPFTFGSGTKLEIKR', 0.52);

Switching to the query record.
Prompt: For the binder 7004-09hu10 (antibody, human IgG1, kappa, V domains shown, humanized antibody of murine 44F7, human IgG1/kappa constant regions) VH: QVQLVQSGAEVKKPGASVKVSCKASGYTFTSYYMHWVRQAPGQGLEWMGTIYPGNGDTSYNQKFQGRVTMTRDKSTSTVYMELSSLRSEDTAVYFCARGGYYGNSLDYWGQGTLVTVSA VL: DIVMTQSPDSLAVSLGERATINCKSSQSLLNSGNQKNYLTWYQQKPGQPPKLLIYWASTRESGVPDRFSGSGSGTDFTLTISSLQAEDVAVYYCQNAYYYPFTFGQGTKLEIKR , give its measured CDC EC50, KATO-III target cells, human serum value.
Completion: 0.27
